assay: NFkB reporter suppression in cystic fibrosis bronchial cells – cell-based, uHTS hits, panel, cytotoxicity readout, dose response (AID 624344); details: CF bronchial epithelial cells, PAF-induced NFkB reporter inhibition; with PAF, mean of runs

{"columns": ["Compound", "IC50"],
 "data": [
  ["C[C@H](CO)N1C[C@H](C)[C@@H](CN(C)C(=O)Nc2ccc3c(c2)OCO3)Oc2c(NC(=O)Nc3ccc(C(F)(F)F)cc3)cccc2C1=O", "3.05 µM"],
  ["O=C(Nc1nnc(C(F)(F)F)s1)c1ccc(Br)s1", "2.28 µM"],
  ["CN(c1ncnc(N)c1[N+](=O)[O-])C1CCS(=O)(=O)C1 (stereo unspecified)", "2.79 µM"],
  ["COc1ccc(-n2c(C)c(C(C)=O)c3cc(O)ccc32)cc1", "0.308 µM"],
  ["O=C1NC(=S)N/C1=C\\c1cccnc1", "5.71 µM"],
  ["O=Nc1ccc(NO)c2ccccc12", "7.21 µM"],
  ["CCOc1ccc(C(C(=O)NCC2CCCO2)N(Cc2cccs2)C(=O)c2snc(C(N)=O)c2N)cc1 (stereo unspecified)", "3.47 µM"],
  ["Nc1nc(/C=C/c2cccnc2)nc(-c2ccccc2O)n1", "4.73 µM"],
  ["Fc1cccc(Cl)c1/C=N/Nc1c(Cl)cncc1Cl", "5.83 µM"],
  ["CC(=C/c1ccccc1)/C=N/n1c(-c2ccncc2)n[nH]c1=S", "0.43 µM"],
  ["CCC1=Nc2cc(C(=O)NCc3ccco3)ccc2Sc2ccc(C)cc21", "11.7 µM"]
]}
